# TARGET ENTITY: T1, human Factor XIIa-alpha (human, UniProt P00748 20-615)
# T1 sequence: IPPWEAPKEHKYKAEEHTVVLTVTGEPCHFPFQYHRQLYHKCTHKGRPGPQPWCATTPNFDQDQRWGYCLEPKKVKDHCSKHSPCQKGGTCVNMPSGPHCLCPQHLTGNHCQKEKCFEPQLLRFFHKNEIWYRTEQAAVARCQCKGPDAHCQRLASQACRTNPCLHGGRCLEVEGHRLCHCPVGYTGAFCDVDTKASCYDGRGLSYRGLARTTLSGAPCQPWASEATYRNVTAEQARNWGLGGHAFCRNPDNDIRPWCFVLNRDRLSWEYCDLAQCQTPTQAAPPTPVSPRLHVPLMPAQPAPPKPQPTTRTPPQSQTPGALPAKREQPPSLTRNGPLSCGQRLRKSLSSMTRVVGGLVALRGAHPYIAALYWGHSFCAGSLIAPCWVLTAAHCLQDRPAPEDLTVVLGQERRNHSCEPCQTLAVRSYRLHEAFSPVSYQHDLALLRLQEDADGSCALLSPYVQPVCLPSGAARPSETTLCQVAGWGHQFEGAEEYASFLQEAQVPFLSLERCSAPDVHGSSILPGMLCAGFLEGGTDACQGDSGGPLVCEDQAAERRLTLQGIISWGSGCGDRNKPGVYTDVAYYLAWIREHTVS
# ASSAY OVERVIEW: cell-based or functional assay
PROPERTY: % Inhibition, ratio FXIIa-alpha:Antibody 1:0.2 (%)
Dear colleague, please return just the value in %, with no unit written.

Tell me its % Inhibition, ratio FXIIa-alpha:Antibody 1:0.2 given monoclonal antibody 3F7 (fully human IgG4/lambda) (antibody, V domains shown, also called 3F7 mAb; MAb 3F7) VH: EVQLLESGGGLVQPGGSLRLSCAASGFTFSKYIMQWVRQAPGKGLEWVSGIRPSGGTTVYADSVKGRFTISRDNSKNTLYLQMNSLRAEDTAVYYCARALPRSGYLISPHYYYYALDVWGQGTTVTVSS VL: QSELTQPPSASGTPGQRVTISCSGSSSNIGRNYVYWYQQVPGTAPKLLIYSNNQRPSGVPDRFSGSKSGTSASLVISGLRSEDEADYYCAAWDASLRGVFGGGTKLTVLG as the entry.
62.5
